The reported numbers originate from patent US20240117030A1.

Target: human IL-13 (human, UniProt P35225 35-146)
Sequence (P35225 35-146 limits assumed, form in doubt): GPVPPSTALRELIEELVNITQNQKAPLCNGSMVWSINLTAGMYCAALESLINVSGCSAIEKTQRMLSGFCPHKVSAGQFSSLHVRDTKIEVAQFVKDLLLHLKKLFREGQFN
Test: cell-based or functional assay
Reported pSTAT6: Fold bioactivity relative to IL13-0001 is given for each of the following binders.
Please give a number only; it is taken to be in fold.

Endpoint output: pSTAT6: Fold bioactivity relative to IL13-0001 of IL13-1307 (antibody, IgG1, V domains shown) VH: EVQLVESGGGLVQPGGSLRLSCAASGFTFSSYAMSWVRQAPGKGLEWVASISSGDTTYYPDSVKGRFTISRDNAKNSLYLQMNSLRAEDTAVYYCARLDGYYFGFPYWGQGTLVTVSS VL: DIQMTQSPSSLSASVGDRVTITCKASESVDHSGSSLMHWYQQKPGKAPKLLIYRASNLESGVPSRFSGSGSGTDFTLTISSLQPEDFATYYCQQSNEDPWTFGGGTKVEIK . Value?
0.7

Field entry: IL13-1308 (antibody, IgG1, V domains shown) VH: EVQLVESGGGLVQPGGSLRLSCAASGFTFSSYAMSWVRQAPGKGLEWVASISSGDTTYYPDSVKGRFTISRDNAKNSLYLQMNSLRAEDTAVYYCARLDGYYFGFPYWGQGTLVTVSS VL: DIQMTQSPSSLSASVGDRVTITCKASESVDHFGWSLVHWYQQKPGKAPKLLIYRASNLESGVPSRFSGSGSGTDFTLTISSLQPEDFATYYCQQSNEDPWTFGGGTKVEIKR
2.2

Item: IL13-0001 (antibody, human IgG1, kappa, V domains shown, also called IL13433-0001; 1RVHC9-VLA4) VH: EVQLVESGGGLVQPGGSLRLSCAASGFTFSSYAMSWVRQAPGKGLEWVASISSGDTTYYPDSVKGRFTISRDNAKNSLYLQMNSLRAEDTAVYYCARNEGYYFGLTLWGQGTLVTVSS VL: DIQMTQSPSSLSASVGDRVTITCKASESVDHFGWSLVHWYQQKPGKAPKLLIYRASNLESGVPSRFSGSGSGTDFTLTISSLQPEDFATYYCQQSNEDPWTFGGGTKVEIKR
1

Would you kindly look at the next entry?
Value lookup for pSTAT6: Fold bioactivity relative to IL13-0001; key = IL13-1338 (antibody, IgG1, V domains shown) VH: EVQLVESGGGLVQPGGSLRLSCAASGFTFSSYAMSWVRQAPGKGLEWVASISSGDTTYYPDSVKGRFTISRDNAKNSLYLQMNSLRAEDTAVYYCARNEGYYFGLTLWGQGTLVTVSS VL: DIQMTQSPSSLSASVGDRVTITCKASESVDHSGSSLMHWYQQKPGKAPKLLIYRASNLESGVPSRFSGSGSGTDFTLTISSLQPEDFATYYCQQSNEDPWTFGGGTKVEIK
1.1
